- Tested on: human growth hormone receptor mRNA
- measurement.notes: Inhibition of human growth hormone receptor mRNA levels by antisense oligonucleotides, quantitative real-time PCR, MCF7 cells
- Type: cell-based
- Set-up: concentration or dose not given beside the values
- measurement.conditions: averages from three experiments
e = 2'-O-(2-methoxyethyl) (MOE); d = 2'-deoxy (DNA)
measured.endpoint: % INHIB (inhibitory effect on hGHR mRNA levels) (%)
Give a bare numeral; the unit % is implied.

# example entries with known answers
- substance: "227502 (antisense GATTGAGGTATTTAGCTATT; sugars from the 5' end e5 d10 e5, all phosphorothioate, methylation of C not given here) [compound 227502]"
  target.or.test.system: "human growth hormone receptor mRNA"
  unit.name: "%"
  value.measured: 56
- substance: "227488 (antisense AGTTGGTCTGTGCTCACATA; sugars from the 5' end e5 d10 e5, all phosphorothioate, methylation of C not given here) [compound 227488]"
  target.or.test.system: "human growth hormone receptor mRNA"
  unit.name: "%"
  value.measured: 86

What does the data say about its % INHIB (inhibitory effect on hGHR mRNA levels)? Entry: 272303 (antisense CCAGAGATCCATACCTGTAG; sugars from the 5' end e5 d10 e5, all phosphorothioate, methylation of C not given here) [compound 272303]
55

272310 (antisense TTTCATCCACTGTACCACCA; sugars from the 5' end e5 d10 e5, all phosphorothioate, methylation of C not given here) [compound 272310] , same question.
76

Thanks! And 272361 (antisense ATTTTCCTTCCTAGAAAATA; sugars from the 5' end e5 d10 e5, all phosphorothioate, methylation of C not given here) [compound 272361] ?
10

Now consider 272344 (antisense ACACTCAATTCTAGCTTTTC; sugars from the 5' end e5 d10 e5, all phosphorothioate, methylation of C not given here) [compound 272344] .
60

Moving on to the next substance: 272315 (antisense CAATGAGTACACTGGAACTG; sugars from the 5' end e5 d10 e5, all phosphorothioate, methylation of C not given here) [compound 272315]
53

Now consider 272351 (antisense ATAGAAATGTTGTCAGGCTG; sugars from the 5' end e5 d10 e5, all phosphorothioate, methylation of C not given here) [compound 272351] and answer again.
57

Note, next up: 272338 (antisense GTGCTATGGTTTGCATTCAA; sugars from the 5' end e5 d10 e5, all phosphorothioate, methylation of C not given here) [compound 272338]
78
